# Test system: Bifidobacterium longum
# Procedure summary: Antimicrobial activity against 90 mins hydrogen peroxide-stressed Bifidobacterium longum ATCC 15707 after 18 hrs
# Format: functional
For each record, check the reported MIC: if it is below 2 µg/mL write Met, else write Not met.

>>> assigned_class("CN[C@@H]1[C@H](O[C@H]2[C@H](O[C@H]3[C@H](O)[C@@H](O)[C@H](N=C(N)N)[C@@H](O)[C@@H]3N=C(N)N)O[C@@H](C)[C@]2(O)C=O)O[C@@H](CO)[C@H](O)[C@H]1O [STREPTOMYCIN]")
"Not met"
>>> assigned_class("CC[C@H]1OC(=O)[C@H](C)[C@@H](O[C@H]2C[C@@](C)(OC)[C@@H](O)[C@H](C)O2)[C@H](C)[C@@H](O[C@@H]2O[C@H](C)C[C@H](N(C)C)[C@H]2O)[C@](C)(O)C[C@@H](C)C(=O)[C@H](C)[C@@H](O)[C@]1(C)O [ERYTHROMYCIN]")
"Met"
>>> assigned_class("O=C(N[C@H](CO)[C@H](O)c1ccc([N+](=O)[O-])cc1)C(Cl)Cl [CHLORAMPHENICOL]")
"Met"
>>> assigned_class("CC1(C)S[C@@H]2[C@H](NC(=O)Cc3ccccc3)C(=O)N2[C@H]1C(=O)O [PENICILLIN G]")
"Met"
>>> assigned_class("Cc1onc(-c2ccccc2Cl)c1C(=O)N[C@@H]1C(=O)N2[C@@H]1SC(C)(C)[C@@H]2C(=O)O [CLOXACILLIN]")
"Met"
>>> assigned_class("NC[C@@H]1O[C@H](O[C@H]2[C@@H](O)[C@H](O[C@@H]3[C@@H](O)[C@H](N)C[C@H](N)[C@H]3O[C@H]3O[C@H](CO)[C@@H](O)[C@H](O)[C@H]3N)O[C@@H]2CO)[C@H](N)[C@@H](O)[C@@H]1O [PAROMOMYCIN]")
"Not met"
>>> assigned_class("NC[C@@H]1O[C@H](O[C@H]2[C@@H](O)[C@H](O[C@@H]3[C@@H](O)[C@H](N)C[C@H](N)[C@H]3O[C@H]3O[C@H](CN)[C@@H](O)[C@H](O)[C@H]3N)O[C@@H]2CO)[C@H](N)[C@@H](O)[C@@H]1O [FRAMYCETIN]")
"Not met"

###

# maps each entry to its MIC
# System: Bifidobacterium longum
# Procedure summary: Antimicrobial activity against 90 mins oxgall-stressed Bifidobacterium longum ATCC 15708 after 18 hrs
# Type: functional
Observable: MIC (µg/mL)

>>> assay_result("CC1(C)S[C@@H]2[C@H](NC(=O)[C@H](N)c3ccccc3)C(=O)N2[C@H]1C(=O)O [AMPICILLIN]")
0.98
>>> assay_result("CN[C@H](CC(C)C)C(=O)N[C@H]1C(=O)N[C@@H](CC(N)=O)C(=O)N[C@H]2C(=O)N[C@H]3C(=O)N[C@H](C(=O)N[C@H](C(=O)O)c4cc(O)cc(O)c4-c4cc3ccc4O)[C@H](O)c3ccc(c(Cl)c3)Oc3cc2cc(c3O[C@@H]2O[C@H](CO)[C@@H](O)[C@H](O)[C@H]2O[C@H]2C[C@](C)(N)[C@H](O)[C@H](C)O2)Oc2ccc(cc2Cl)[C@H]1O [VANCOMYCIN]")
0.98
>>> assay_result("Cc1onc(-c2ccccc2Cl)c1C(=O)N[C@@H]1C(=O)N2[C@@H]1SC(C)(C)[C@@H]2C(=O)O [CLOXACILLIN]")
125
>>> assay_result("CN(C)[C@@H]1C(O)=C(C(N)=O)C(=O)[C@@]2(O)C(O)=C3C(=O)c4c(O)cccc4[C@@](C)(O)[C@H]3C[C@@H]12.Cl [TETRACYCLINE HYDROCHLORIDE]")
125
>>> assay_result("O=C(N[C@H](CO)[C@H](O)c1ccc([N+](=O)[O-])cc1)C(Cl)Cl [CHLORAMPHENICOL]")
0.98
>>> assay_result("CC[C@H]1OC(=O)[C@H](C)[C@@H](O[C@H]2C[C@@](C)(OC)[C@@H](O)[C@H](C)O2)[C@H](C)[C@@H](O[C@@H]2O[C@H](C)C[C@H](N(C)C)[C@H]2O)[C@](C)(O)C[C@@H](C)C(=O)[C@H](C)[C@@H](O)[C@]1(C)O [ERYTHROMYCIN]")
1.9

###

# Tested on: Bifidobacterium pseudolongum
# Procedure summary: Antimicrobial activity against Bifidobacterium pseudolongum ATCC 25562
# Assay type: functional
# maps each entry to its MIC
Observable: MIC (µg/mL)

>>> assay_result("Cc1onc(-c2ccccc2Cl)c1C(=O)N[C@@H]1C(=O)N2[C@@H]1SC(C)(C)[C@@H]2C(=O)O [CLOXACILLIN]")
3.9
>>> assay_result("CC[C@H]1OC(=O)[C@H](C)[C@@H](O[C@H]2C[C@@](C)(OC)[C@@H](O)[C@H](C)O2)[C@H](C)[C@@H](O[C@@H]2O[C@H](C)C[C@H](N(C)C)[C@H]2O)[C@](C)(O)C[C@@H](C)C(=O)[C@H](C)[C@@H](O)[C@]1(C)O [ERYTHROMYCIN]")
3.9

###

# System: Bifidobacterium longum
# Procedure summary: Antimicrobial activity against 90 mins oxgall-stressed Bifidobacterium longum P/N 601377 after 18 hrs
# Format: functional
Observable: MIC (µg/mL)

>>> assay_result("CC1(C)S[C@@H]2[C@H](NC(=O)[C@H](N)c3ccccc3)C(=O)N2[C@H]1C(=O)O [AMPICILLIN]")
0.98
>>> assay_result("Cc1onc(-c2ccccc2Cl)c1C(=O)N[C@@H]1C(=O)N2[C@@H]1SC(C)(C)[C@@H]2C(=O)O [CLOXACILLIN]")
62.5
>>> assay_result("O=C(N[C@H](CO)[C@H](O)c1ccc([N+](=O)[O-])cc1)C(Cl)Cl [CHLORAMPHENICOL]")
1.9
>>> assay_result("NC[C@@H]1O[C@H](O[C@H]2[C@@H](O)[C@H](O[C@@H]3[C@@H](O)[C@H](N)C[C@H](N)[C@H]3O[C@H]3O[C@H](CN)[C@@H](O)[C@H](O)[C@H]3N)O[C@@H]2CO)[C@H](N)[C@@H](O)[C@@H]1O [FRAMYCETIN]")
62.5
>>> assay_result("NC[C@@H]1O[C@H](O[C@H]2[C@@H](O)[C@H](O[C@@H]3[C@@H](O)[C@H](N)C[C@H](N)[C@H]3O[C@H]3O[C@H](CO)[C@@H](O)[C@H](O)[C@H]3N)O[C@@H]2CO)[C@H](N)[C@@H](O)[C@@H]1O [PAROMOMYCIN]")
62.5

The measured values listed here are drawn from ChEMBL document CHEMBL1142148.
